test: Human HepG2 cell viability assay in 384 well format; type: toxicity, cell-based; design: dose 125 nL, time 70.5 hour; concentration not given beside the values; conditions: HepG2 cells, read-out: Inhibition
Experimental endpoint: cytotoxicity at 70.5 h

Given COc1ccc(CN2CCC(C(N)=O)C2)c(Br)c1OC (stereo not given) , state its recorded cytotoxicity at 70.5 h. 0.0817%

What about CCCc1ccc(S(=O)(=O)NC(=O)CCC2CCCO2)cc1 (stereo not given) ? 3.11%

Continue with CCS(=O)(=O)N1CCO[C@H]2[C@H](OCCCn3cccn3)CC[C@@H]21 -9.45%

What do we get for CCc1nnc2n1CCN(CC(=O)N1CCc3ccccc3C1)C2 ? 28.5%

Now try CCn1ccnc1CN1CCN(CC(O)c2ccco2)CC1 (stereo not given) . -5.46%

Same again, this time with O=C(O)c1nnn(-c2ccc(F)c(F)c2)c1-c1ccncc1 -8.76%

Then this compound: Cc1cccc(CN2C(=O)CC[C@@H]3[C@H]2CCN3CC2CCOCC2)n1 -18.9%

Same lookup for CCC(Nc1nc(C2CCCC2)nc2c1cnn2C)c1ccncc1 (stereo not given) , please. 8.01%

What do we get for O=C(Cc1ccccc1F)N1CCCCC1c1ccn2ccnc2n1 (stereo not given) ? -6.86%

Another: COCCCNC(=O)CCn1ncc2c(Cl)cccc21 -7.64%

Please answer likewise for CNC(=O)c1ccc(C(=O)N2CCCC2c2cnn(C)c2)cn1 (stereo not given) 1.99%

Can you check CCCOc1c(Cl)cc(C(=O)N2CCOC23CCN(C)CC3)cc1Cl next? 7.29%

Next up: Cc1ccc(C(C)NC(=O)CNCCn2cccn2)cc1C (stereo not given) -10.7%

Moving on to CN(C)CC(=O)N1C[C@@H]2CC[C@H](Oc3ccccc3Cl)[C@@H]2C1 -15.6%

Try this compound too: CCNc1ncc(C(=O)NCCc2ccc(C)c(C)c2)cn1 -4.37%

And O=C(Cc1cccc(F)c1)NCCNCc1cccnc1 ? -4.1%

What do we get for c1ccc(OCc2nnc3n2CCN(CC2CCOCC2)C3)nc1 ? -0.459%

Would you mind doing COc1ccc(-n2nnnc2C(C)(C)Nc2ccc(C)cc2C)cc1 as well? 40.2%

Next record, please: Cn1ccnc(Nc2ccc3c(c2)CCN3C(=O)c2ccoc2)c1=O -10%

Proceed to Cc1nccc(-c2cccc(NCC(=O)N3CCNC(=O)C3)c2)n1 -5.62%

---

Record form. Attribute: cytotoxicity at 70.5 h. Fill in for each entry.
assay: Human HepG2 cell viability assay in 384 well format; assay type: toxicity, cell-based; design: dose 125 nL, time 70.5 hour; concentration not given beside the values; settings: HepG2 cells, read-out: Inhibition
Respond with a number, then the unit of measure.

Item CCOc1ccc(S(=O)(=O)NC(=O)CCC2CCCO2)cc1 (stereo unspecified) has what recorded cytotoxicity at 70.5 h? -10.5%

# repeat for Cc1cc(C(=O)NC2(C#N)CCSCC2)n(C)n1 -5.82%

Please answer likewise for CC(C)(C)c1ccc2c(c1)CCN2C(=O)c1ccc(=O)[nH]n1 -5.53%

Also O=C(c1ccsc1)N1CCc2c(CNc3nccs3)n[nH]c2C1 ? -2.81%

Likewise for CCCn1[nH]cc/c1=N\C(=O)CN1CCc2c(nc(C(C)C)n2C)C1 ? 18%

Same question for O=C(Cc1ccc(-n2cccn2)cc1)N1CCCC(n2cccn2)C1 (stereo unspecified) please. 17.4%
